pIC50: −log10 of the molar value.
The next entries give measured pIC50 for Human recombinant PTP1B (hPTP1B) (Homo sapiens, UniProt P18031).
measure.name: pIC50

CCc1cc(-c2c3ccccc3cc3oc(C)c(C)c23)cc(Br)c1O[C@H](Cc1ccccc1)C(=O)O :: 6.11

(I) Cc1sc2c(Br)c3ccccc3c(-c3cc(Br)c(O[C@H](C)C(=O)O)c(Br)c3)c2c1C
(II) CCN(CC)Cc1sc2c(Br)c3ccccc3c(-c3cc(C(C)C)c(O[C@H](Cc4ccccc4)C(=O)O)c(C(C)C)c3)c2c1C
Q: When the recorded pIC50 values are compared, which is smaller: that of I or that of II ? Bench note: the answer is the label of the chosen record.
Result: I
(I: 6.06, II: 6.49)

----------
# tested.target: Human recombinant PTP1B (hPTP1B) (Homo sapiens, UniProt P18031)
# Sequence (P18031 1-435): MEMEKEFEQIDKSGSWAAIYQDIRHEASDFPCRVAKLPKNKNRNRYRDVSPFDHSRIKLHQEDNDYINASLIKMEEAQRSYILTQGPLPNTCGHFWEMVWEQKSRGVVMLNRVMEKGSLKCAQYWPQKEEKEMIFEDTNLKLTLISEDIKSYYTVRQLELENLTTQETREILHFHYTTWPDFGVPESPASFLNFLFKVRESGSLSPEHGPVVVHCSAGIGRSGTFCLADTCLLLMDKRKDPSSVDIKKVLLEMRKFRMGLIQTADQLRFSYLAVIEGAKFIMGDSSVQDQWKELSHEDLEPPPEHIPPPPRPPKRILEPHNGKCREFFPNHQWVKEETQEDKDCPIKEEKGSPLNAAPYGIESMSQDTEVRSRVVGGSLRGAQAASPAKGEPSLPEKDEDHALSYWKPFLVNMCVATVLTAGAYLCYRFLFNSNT
pIC50: −log10 of the molar value.
measure.name: pIC50

CCc1cc(-c2c3ccccc3cc3sc(C)c(C)c23)cc(CC)c1O[C@H](Cc1ccccc1)C(=O)NCC(=O)O :: 7.10

(1) CCc1cc(-c2c3ccccc3cc3oc(C)c(C)c23)cc(Br)c1O
(2) Cc1sc2c(Sc3ccccc3)c3ccccc3c(-c3cc(Br)c(O[C@H](C)C(=O)O)c(Br)c3)c2c1C
(3) CCc1cc(-c2c3ccccc3cc3sc(C)c(C)c23)ccc1O[C@H](Cc1ccccc1)C(=O)O
Q: List the 3 entries from lowest pIC50 to highest pIC50 value. Write the labels in rank order as requested.
Result: 3, 1, 2

----------
# Tested on: rat hepatic microsomal PTPases
# study.conditions: 50 μM compound
measure.name: % Change from Control (%)

Solved entries (count: 3):
Cc1c(CN2CCOCC2)sc2c(Br)c3ccccc3c(-c3cc(Br)c(OC(Cc4ccccc4)C(=O)O)c(Br)c3)c12 (stereo not drawn) [Example 35] :: −58.85
Cc1sc2c(Br)c3ccccc3c(-c3cc(C(C)C)c(OCC(=O)O)c(C(C)C)c3)c2c1C [Example 53] :: −81.83
Cc1sc2c(Br)c3ccccc3c(-c3cc(Br)c(O[C@@H](CCc4ccccc4)C(=O)O)c(Br)c3)c2c1C [Example 31] :: −63.42

(P) Cc1c(CN2CCOCC2)sc2c(Br)c3ccccc3c(-c3cc(Br)c(OC(C)C(=O)O)c(Br)c3)c12 (stereo not drawn) [Example 36]
(Q) Cc1sc2cc3ccccc3c(-c3ccc(O[C@H](Cc4ccccc4)C(=O)O)c(C(C)C)c3)c2c1C [Example 41]
Q: When the recorded % Change from Control values are compared, which is smaller: that of P or that of Q ? Bench note: the answer is the label of the chosen record.
Result: P

(I) Cc1sc2cc3ccccc3c(-c3cc(C(C)C)c(O[C@H](Cc4ccccc4)C(=O)O)c(C(C)C)c3)c2c1C [Example 50]
(II) Cc1sc2c(Br)c3ccccc3c(-c3cc(N)c(O)c(Br)c3)c2c1C [Example 23]
Q: When the recorded % Change from Control values are compared, which is smaller: that of I or that of II ? Bench note: the answer is the label of the chosen record.
Result: I
(I: −81.27%, II: −26.11%)
